System: MOLT-4 leukemia
procedure text: NCI-60 one-dose screen, 48 h (100 = growth as untreated, 0 = no growth, -100 = all killed)
experimental context: 10 µM unless noted
This is part of a sample that, as a whole, favours compounds with a hit. Of some 83,000 tested, about 20% had one in any assay. Active and inactive are the calls of the source. Rule for the calls: active = growth percent below 10; inactive = the rest.
readout type: growth

Prompt: // lookup growth for COc1cc(C2CC(c3ccc(C)cc3)=NN2C=O)ccc1Oc1nc2c(c(=O)n(C)c(=O)n2C)n1C (stereo unspecified)
Response: 67.2% (inactive)

Prompt: One more compound: Cc1ccncc1NC=O
Response: 108% (inactive)

Prompt: Next: O=c1c2cc(Cl)ccc2oc2ccc(OCCCCCN3CCCCCC3)cc12
Response: 48.5% (inactive)

Prompt: Now this one: COc1ccc(-c2nc3c(c(-c4ccc(Cl)cc4)nn3-c3ccccc3)c(-c3ccc(O)cc3)c2C#N)cc1
Response: 14.4% (inactive)

Prompt: C[C@@H]1N=C(c2ccc3ccccc3c2)Nc2nc3ccccn3c2C1=O , same question.
Response: 34.5% (inactive)

Prompt: Then this compound: O=C(Nc1cccc(C2=NCCN2)c1)c1ccc(N=Nc2ccc(C(=O)Nc3cccc(C4=NCCN4)c3)cc2)cc1
Response: 80.9% (inactive)

Prompt: Then COc1ccc(C(=O)OC2C(OC3C(O)COC(O[C@H]4C[C@H]5[C@@H]6CC=C7C[C@@H](O)CC[C@]7(C)[C@H]6CC[C@]5(C)[C@H]4[C@H](C)C(=O)CCC(C)C)C3OC(C)=O)OCC(O)C2O)cc1 (stereo partly specified) ?
Response: -42.4% (active)

Prompt: Also, CC1CCN(CCCCCOc2ccc3oc4ccc(Cl)cc4c(=O)c3c2)CC1 please.
Response: 26.6% (inactive)

Prompt: Then COc1ccc(-c2nc3ccccc3n3cccc23)cc1 ?
Response: 101% (inactive)

Prompt: Another compound to look at: CCN1C(=O)N(CC)C2C1NN=c1s/c(=C\c3ccco3)c(=O)n12 (stereo unspecified)
Response: 31.7% (inactive)

Prompt: Same thing, different compound: COc1ccc(-c2cc(-c3ccc(OC)cc3)c3sc(=O)[nH]c3n2)cc1
Response: 92.9% (inactive)
